tested on: HT29 colon; assay: NCI tumour cell line growth inhibition, 48 h
measure_name: TGI (µM)
Entry rule: numbers only, all in µM.

Given the compound `COc1ccc(/C=C2\C[C@H]3[C@@H]4CCC5=C/C(=N/O)CC[C@]5(C)[C@H]4CC[C@]3(C)\C2=N\O)cc1` and test system HT29 colon, the measured TGI is 45.3

Given the compound CC(C)(C)NCC(O)COc1c(Br)c(Br)c(Br)c2c1OC(C)(C)C2 (stereo not given) and test system HT29 colon, the measured TGI is 2.75

Given the compound `C=C1C(=O)C23[C@H](O)C1CC[C@H]2[C@]12COC3(O)[C@@H](O)[C@@H]1C(C)(C)CC[C@@H]2O` and test system HT29 colon, the measured TGI is 36.6

Given the compound `O=C(c1ccc2ccccc2c1)c1nc2cc(F)ccc2[n+]([O-])c1C(F)(F)F` and test system HT29 colon, the measured TGI is 35.2

Given the compound `CCCC(=O)N[C@H]1CCc2cc(OC)c(OC)c(OC)c2-c2ccc(SC)c(=O)cc21` and test system HT29 colon, the measured TGI is 0.724

Given the compound `Cc1cc(N/N=C/c2nc(-c3ccc(Cl)cc3)oc2C)c2cc(Br)ccc2n1` and test system HT29 colon, the measured TGI is 5.99

Given the compound `CCCCCCCCCc1ccc(OCCOCCOCCOCCOCCOCCOCCOCCOCCO)cc1` and test system HT29 colon, the measured TGI is 1.98

Given the compound `COc1cc(C(=O)Oc2c(C(C)=O)sc3c2c(=O)n(-c2ccccc2)c(=S)n3-c2ccccc2)cc(OC)c1OC` and test system HT29 colon, the measured TGI is 32.8

Given the compound `c1cc2c3c(c1)c1cc4c(cc1c[n+]3CC2)OCO4` and test system HT29 colon, the measured TGI is 67
